biological target: T1, human PD-L1-Fc (human, UniProt Q9NZQ7 19-239); assay: BLI; PD-L1-Fc loaded on the sensor, scFv in solution
T1 construct: also called hPD-L1-Fc; human PD-L1-Fc (Sino Biological, 70110-D02H); not shown: Fc part
T1 sequence (Q9NZQ7 19-239 limits assumed): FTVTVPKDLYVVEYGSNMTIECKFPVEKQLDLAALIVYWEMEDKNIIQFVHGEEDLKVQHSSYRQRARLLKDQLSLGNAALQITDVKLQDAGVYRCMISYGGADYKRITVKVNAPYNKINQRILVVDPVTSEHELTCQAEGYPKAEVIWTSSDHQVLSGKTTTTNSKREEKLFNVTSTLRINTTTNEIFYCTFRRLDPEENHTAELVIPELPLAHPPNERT
measured-property: kon

# annotated cases, reported kon shown
4B6-HgLa scFv (wild-type sequence for affinity maturation) (scFv, written VL-linker-VH; also called L-CDR1-WT; L-CDR2-WT) scFv: DIQMTQSPSSLSASVGDRVTITCKASQNVGAAVAWYQQKPGKAPKLLIYSASNRYTGVPSRFSGSGSGTDFTLTISSLQPEDIATYYCQQYSNYPTFGQGTKLEIKGGGGSGGGGSGGGGSQVQLVQSGAEVKKPGASVKVSCKASGYVFTDYYMNWVRQAPGQSLEWMGDINPNNAGTSYNHKFKGRVTVTVDKSISTAYMELSRLRSDDTAVYYCVKWGDGPFAYWGQGTLVTVSS
38100 M⁻¹ s⁻¹
4B6 scFv variant L-CDR2-3 (scFv, also called 4B6-L-CDR2-3) scFv: DIQMTQSPSSLSASVGDRVTITCKASQNVGAAVAWYQQKPGKAPKLLIYSVSDRYTGVPSRFSGSGSGTDFTLTISSLQPEDIATYYCQQYSNYPTFGQGTKLEIKGGGGSGGGGSGGGGSQVQLVQSGAEVKKPGASVKVSCKASGYVFTDYYMNWVRQAPGQSLEWMGDINPNNAGTSYNHKFKGRVTVTVDKSISTAYMELSRLRSDDTAVYYCVKWGDGPFAYWGQGTLVTVSS
124000 M⁻¹ s⁻¹
4B6 scFv variant L-CDR2-1 (scFv, also called 4B6-L-CDR2-1) scFv: DIQMTQSPSSLSASVGDRVTITCKASQNVGAAVAWYQQKPGKAPKLLIYSNSHRYTGVPSRFSGSGSGTDFTLTISSLQPEDIATYYCQQYSNYPTFGQGTKLEIKGGGGSGGGGSGGGGSQVQLVQSGAEVKKPGASVKVSCKASGYVFTDYYMNWVRQAPGQSLEWMGDINPNNAGTSYNHKFKGRVTVTVDKSISTAYMELSRLRSDDTAVYYCVKWGDGPFAYWGQGTLVTVSS
46800 M⁻¹ s⁻¹

Continue with the binder presented below.
Lookup result for 4B6 scFv variant L-CDR2-2 (scFv, also called 4B6-L-CDR2-2) scFv: DIQMTQSPSSLSASVGDRVTITCKASQNVGAAVAWYQQKPGKAPKLLIYSRSVRYTGVPSRFSGSGSGTDFTLTISSLQPEDIATYYCQQYSNYPTFGQGTKLEIKGGGGSGGGGSGGGGSQVQLVQSGAEVKKPGASVKVSCKASGYVFTDYYMNWVRQAPGQSLEWMGDINPNNAGTSYNHKFKGRVTVTVDKSISTAYMELSRLRSDDTAVYYCVKWGDGPFAYWGQGTLVTVSS ; measured kon: 162000 M⁻¹ s⁻¹

Where do these numbers come from? They come from patent US20250282874A1.
